Data provenance is paper PMC11620517.

Tested on: P. berghei ookinete development (Ookluc parasites)
Assay: P. berghei ookinete luciferase inhibition assay
Assay type: cell-based, Plasmodium berghei
Conditions: Plasmodium berghei, 24 h, read-out: IC50 (ookinete development)
pIC50: −log10 of the molar value.
Value kind: pIC50

[[record]]
entry_smiles = "O=C(N/N=C/c1c(O)ccc2ccccc12)c1cc([N+](=O)[O-])cc([N+](=O)[O-])c1"
value_kind = "pIC50"
value_observed = 4.53

